All figures here come from patent US9023398B2.

Assay: Dissolution test of poorly-soluble substances using distilled water
Format: physicochemical
Conditions: water; elution time 3 min
Quick rule: Dissolved amount of at least 600 µg/mL means Y, below that means N.

[[record]]
compound = "O=C1NC(=O)C(c2ccccc2)(c2ccccc2)N1 [compound 21, Phenyloin]"
group = "N"

[[record]]
compound = "NC(N)=Nc1nc(CSCCC(N)=NS(N)(=O)=O)cs1 [Comparative Example 17, Famotidine]"
group = "Y"

[[record]]
compound = "OCCN(CCO)c1nc(N2CCCCC2)c2nc(N(CCO)CCO)nc(N3CCCCC3)c2n1 [compound 31, Dipyridamole]"
group = "N"

[[record]]
compound = "CC[C@H]1OC(=O)[C@H](C)[C@@H](O[C@H]2C[C@@](C)(OC)[C@@H](O)[C@H](C)O2)[C@H](C)[C@@H](O[C@@H]2O[C@H](C)C[C@H](N(C)C)[C@H]2O)[C@](C)(O)C[C@@H](C)C(=O)[C@H](C)[C@@H](O)[C@]1(C)O [compound 28, Erythromycin]"
group = "Y"

[[record]]
compound = "CCS(=O)(=O)CCn1c([N+](=O)[O-])cnc1C [compound 25, Tinidazole]"
group = "Y"

[[record]]
compound = "CC(=O)Nc1nnc(S(N)(=O)=O)s1 [compound 23, Acetazolamide]"
group = "Y"

[[record]]
compound = "NC(=O)N1c2ccccc2C=Cc2ccccc21 [compound 22, Carbamazepine]"
group = "N"

[[record]]
compound = "CC(=O)SC[C@@H](C)C(=O)N1CCC[C@H]1C(=O)N[C@@H](Cc1ccccc1)C(=O)O [compound 24, Alacepril]"
group = "N"

[[record]]
compound = "CC(=O)O[C@]1(C(C)=O)CC[C@H]2[C@@H]3C=C(Cl)C4=CC(=O)CC[C@]4(C)[C@H]3CC[C@@]21C [Comparative Example 3-2, Chlormadinone acetate]"
group = "N"

